Numbers sourced from paper PMC11239005.

- ASSAY_SUMMARY: Single dose plasma pharmacokinetics in CD1 mice
- Assay type: in vivo, mouse
- RECORDED_CONDITIONS: male, CD1, mouse; plasma, IP 40 mg/kg
OUTCOME_MEASURE: Tmax (min)
Your answer is read as min, so omit the unit and give the number.

# return recorded Tmax for entry Cl.Cl.N#Cc1ccc(/C=C2/C(=O)/C(=C/c3ccc(C#N)cc3)C23CCN(C(=N)N)CC3)cc1
15

----------
- ASSAY_SUMMARY: Single dose plasma pharmacokinetics in CD1 mice
- Type: in vivo, mouse
- RECORDED_CONDITIONS: male, CD1, mouse; plasma, IV 10 mg/kg
- Experimental: For single dose pharmacokinetic studies, plasma samples (40 μL) were mixed with 200 μL of a water-methanol (1:9, v/v) containing the internal standard elacridar at 80 ng/mL. […] The lower limit of quantitation (LLOQ) in plasma was 10 ng/mL. Pharmacokinetic parameters were calculated from mean concentration-time data using non-compartmental methods in Phoenix WinNonlin version 8.3 (Certara, Princeton, NJ). […] The AUClast was calculated using the log-linear trapezoidal method. […]
OUTCOME_MEASURE: half-life
Remember to quote the unit after the number.

Look up and report measured half-life for this entry: Cl.Cl.N#Cc1ccc(/C=C2/C(=O)/C(=C/c3ccc(C#N)cc3)C23CCN(C(=N)N)CC3)cc1 [RA475]
2.1 h

----------
- ASSAY_SUMMARY: Kinetic aqueous solubility in PBS pH 7.4
- Assay type: physicochemical
- RECORDED_CONDITIONS: 25 °C, pH 7.4, aqueous buffer, kinetic from dmso stock
OUTCOME_MEASURE: solubility at 2 h (µM)
// note: answer is a bare numeric in µM

Supply recorded solubility at 2 h for N#Cc1ccc(/C=C2/C(=O)/C(=C/c3ccc(C#N)cc3)C23CCNCC3)cc1 [Up284, reference compound] here.
37

----------
- ASSAY_SUMMARY: Single dose plasma pharmacokinetics in CD1 mice
- Format: in vivo, mouse
- RECORDED_CONDITIONS: male, CD1, mouse, plasma, po, 40 mg/kg, PO 40 mg/Kg, 240 min; LLOQ 10 ng/mL; read-out: Plasma concentration, Group A-D
OUTCOME_MEASURE: concentration at 240 min (ng/mL)
Give just the number in ng/mL; leave the unit off.

Identify concentration at 240 min associated with the compound Cl.Cl.N#Cc1ccc(/C=C2/C(=O)/C(=C/c3ccc(C#N)cc3)C23CCN(C(=N)N)CC3)cc1 [RA475]
20

----------
- ASSAY_SUMMARY: Single dose plasma pharmacokinetics in CD1 mice
- Format: in vivo, mouse
- RECORDED_CONDITIONS: CD1, mouse, plasma, ip, 40 mg/kg, IP 40 mg/Kg, 360 min; read-out: Plasma concentration, Group A-D
OUTCOME_MEASURE: concentration at 360 min (ng/mL)
Your answer is read as ng/mL, so omit the unit and give the number.

Supply reported concentration at 360 min belonging to this compound: Cl.Cl.N#Cc1ccc(/C=C2/C(=O)/C(=C/c3ccc(C#N)cc3)C23CCN(C(=N)N)CC3)cc1
327

----------
- System: SKOV3
- ASSAY_SUMMARY: MTT cytotoxicity assay, SKOV3
- Type: cell-based
- RECORDED_CONDITIONS: Homo sapiens, SK-OV-3, SKOV3, 72 h
OUTCOME_MEASURE: pIC50
// pIC50 is dimensionless: -log10 of concentration (M)

Find the measured pIC50 of N#Cc1ccc(/C=C2/C(=O)/C(=C/c3ccc(C#N)cc3)C23CCNCC3)cc1 [Up284, reference compound] and report it.
7.15

Kindly indicate its recorded pIC50. Item: Cl.Cl.N#Cc1ccc(/C=C2/C(=O)/C(=C/c3ccc(C#N)cc3)C23CCN(C(=N)N)CC3)cc1
6.53

----------
Please respond with reported IC50 for every item in the list.
- TARGET_OR_TEST_SYSTEM: hERG potassium channel (Homo sapiens)
- Sequence (Q12809 whole entry): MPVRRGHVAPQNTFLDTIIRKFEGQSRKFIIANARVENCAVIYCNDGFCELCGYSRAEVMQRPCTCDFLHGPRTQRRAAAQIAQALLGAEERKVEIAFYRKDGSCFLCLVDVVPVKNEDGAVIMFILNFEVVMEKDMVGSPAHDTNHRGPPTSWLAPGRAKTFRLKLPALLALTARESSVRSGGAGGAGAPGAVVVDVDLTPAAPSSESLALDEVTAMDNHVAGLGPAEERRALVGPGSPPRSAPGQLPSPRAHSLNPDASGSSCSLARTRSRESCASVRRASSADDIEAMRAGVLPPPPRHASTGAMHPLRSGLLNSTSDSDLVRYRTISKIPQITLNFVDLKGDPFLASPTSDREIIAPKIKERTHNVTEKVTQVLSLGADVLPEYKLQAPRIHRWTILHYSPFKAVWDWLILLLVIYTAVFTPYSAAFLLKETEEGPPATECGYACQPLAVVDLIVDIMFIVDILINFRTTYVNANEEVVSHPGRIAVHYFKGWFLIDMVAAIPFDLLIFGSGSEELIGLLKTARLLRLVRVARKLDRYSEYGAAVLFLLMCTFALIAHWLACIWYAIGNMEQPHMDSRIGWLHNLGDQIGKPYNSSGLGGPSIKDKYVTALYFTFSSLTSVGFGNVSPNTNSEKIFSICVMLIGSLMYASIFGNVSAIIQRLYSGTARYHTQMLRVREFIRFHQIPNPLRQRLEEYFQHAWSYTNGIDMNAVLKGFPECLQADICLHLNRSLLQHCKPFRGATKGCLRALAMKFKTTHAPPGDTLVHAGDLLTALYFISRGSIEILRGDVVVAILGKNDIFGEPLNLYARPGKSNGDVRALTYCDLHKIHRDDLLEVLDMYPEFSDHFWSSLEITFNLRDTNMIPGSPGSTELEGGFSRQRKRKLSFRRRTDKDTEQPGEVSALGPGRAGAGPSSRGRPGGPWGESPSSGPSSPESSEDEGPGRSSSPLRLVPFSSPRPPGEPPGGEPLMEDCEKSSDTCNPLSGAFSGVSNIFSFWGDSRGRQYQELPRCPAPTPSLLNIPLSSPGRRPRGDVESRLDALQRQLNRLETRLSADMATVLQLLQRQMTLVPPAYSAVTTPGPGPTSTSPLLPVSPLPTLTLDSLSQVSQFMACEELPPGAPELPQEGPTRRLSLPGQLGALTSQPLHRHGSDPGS
- ASSAY_SUMMARY: hERG Thallium Flux FLIPR-Based Assay
Report the value in µM with no unit label.

Give IC50 for the following compound: Cl.Cl.N#Cc1ccc(/C=C2/C(=O)/C(=C/c3ccc(C#N)cc3)C23CCN(C(=N)N)CC3)cc1
85.8

For N#Cc1ccc(/C=C2/C(=O)/C(=C/c3ccc(C#N)cc3)C23CCNCC3)cc1 [Up284, reference compound] , write its IC50.
4.3

----------
- ASSAY_SUMMARY: LogD measurement, shake-flask octanol/PBS pH 7.4
- Assay type: physicochemical
- RECORDED_CONDITIONS: n-octanol/PBS, pH 7.4, single injections 1-3
OUTCOME_MEASURE: logD

State its logD for this compound: N#Cc1ccc(/C=C2/C(=O)/C(=C/c3ccc(C#N)cc3)C23CCNCC3)cc1 [Up284, reference compound]
2.06

----------
So I've got a bunch of compounds here, and I need their IC50 values.
- System: PEA1 cells
- ASSAY_SUMMARY: MTT cytotoxicity assay, PEA1
- Type: cell-based, human
- RECORDED_CONDITIONS: Homo sapiens, PEA1, 72 h
Respond with the bare value in nM.

Given the compound N#Cc1ccc(/C=C2/C(=O)/C(=C/c3ccc(C#N)c(F)c3)C23CCN(C(=N)N)C3)cc1F , write its reported IC50.
350

Indicate the recorded IC50 value for this compound: N#Cc1ccc(/C=C2/C(=O)/C(=C/c3ccc(C#N)cc3)C23CCN(C(=N)N2CCOCC2)CC3)cc1
479

Specify IC50 for N#Cc1ccc(/C=C2/C(=O)/C(=C/c3ccc(C#N)c(F)c3)C23CCN(C(=N)N)CC3)cc1F and stop.
396

Look up and report measured IC50 for this entry: Cl.Cl.N#Cc1ccc(/C=C2/C(=O)/C(=C/c3ccc(C#N)cc3)C23CCN(C(=N)N)CC3)cc1
406

Query IC50 for N#Cc1ccc(/C=C2/C(=O)/C(=C/c3ccc(C#N)cc3)C23CCN(C(=N)N)C3)cc1
331

Using known records, supply IC50 for N#Cc1ccc(/C=C2/C(=O)/C(=C/c3ccc(C#N)cc3)C23CCNCC3)cc1 [Up284, reference compound]
219

----------
- ASSAY_SUMMARY: Mouse plasma protein binding, equilibrium dialysis
- Type: in vitro ADME
- RECORDED_CONDITIONS: pH 7.4, dialysis 5 h
OUTCOME_MEASURE: fraction unbound at 5 h, 1 μM

Could you please provide reported fraction unbound at 5 h, 1 μM for Cl.Cl.N#Cc1ccc(/C=C2/C(=O)/C(=C/c3ccc(C#N)cc3)C23CCN(C(=N)N)CC3)cc1 [RA475] ? Thanks!
< 0.01

----------
- ASSAY_SUMMARY: Kinetic aqueous solubility in PBS pH 7.4
- Type: physicochemical
- RECORDED_CONDITIONS: 25 °C, pH 7.4, aqueous buffer, kinetic from dmso stock, kinetic, 2% DMSO, 25°C, 2 h; read-out: PBS solubility, pH 7.4, Mean
OUTCOME_MEASURE: solubility at 2 h (µM)
Numeric only. Scale: µM

Consider the compound Cl.Cl.N#Cc1ccc(/C=C2/C(=O)/C(=C/c3ccc(C#N)cc3)C23CCN(C(=N)N)CC3)cc1 . State its measured solubility at 2 h.
137

----------
- ASSAY_SUMMARY: Single dose plasma pharmacokinetics in CD1 mice
- Assay type: in vivo, mouse
- RECORDED_CONDITIONS: male, CD1, mouse; plasma, IP 40 mg/kg
OUTCOME_MEASURE: AUC(0-t) (ng·h/mL)
All answers are understood in ng·h/mL, so give the number only.

Complete the entry with AUC(0-t) for Cl.Cl.N#Cc1ccc(/C=C2/C(=O)/C(=C/c3ccc(C#N)cc3)C23CCN(C(=N)N)CC3)cc1 [RA475]
11300

----------
- ASSAY_SUMMARY: Single increasing dose tolerability in CD-1 mice, IP
- Assay type: in vivo, mouse
- RECORDED_CONDITIONS: CD-1, mouse, in vivo; mice, single dose, IP
OUTCOME_MEASURE: NOAEL

Query NOAEL for Cl.Cl.N#Cc1ccc(/C=C2/C(=O)/C(=C/c3ccc(C#N)cc3)C23CCN(C(=N)N)CC3)cc1
> 80 mg/kg

----------
Task for the reader: assign each of the following compounds its reported pIC50.
- Test system: BT549
- ASSAY_SUMMARY: MTT cytotoxicity assay, BT549
- Type: cell-based
- RECORDED_CONDITIONS: Homo sapiens, BT-549, BT549, 72 h
The scale used: pIC50 is minus the common logarithm of the concentration in molar units.

Write down pIC50 measured for item N#Cc1ccc(/C=C2/C(=O)/C(=C/c3ccc(C#N)cc3)C23CCNCC3)cc1 [Up284, reference compound]
7.15

Quick one: give measured pIC50 for Cl.Cl.N#Cc1ccc(/C=C2/C(=O)/C(=C/c3ccc(C#N)cc3)C23CCN(C(=N)N)CC3)cc1 [RA475]
6.64

----------
- ASSAY_SUMMARY: Single dose plasma pharmacokinetics in CD1 mice
- Assay type: in vivo, mouse
- RECORDED_CONDITIONS: male, CD1, mouse, plasma, ip, 40 mg/kg, IP 40 mg/Kg, 240 min; read-out: Plasma concentration, Group A-D
OUTCOME_MEASURE: concentration at 240 min (ng/mL)
Write the number in ng/mL without appending the unit.

Input Cl.Cl.N#Cc1ccc(/C=C2/C(=O)/C(=C/c3ccc(C#N)cc3)C23CCN(C(=N)N)CC3)cc1 , output reported concentration at 240 min.
356
